assay: Phase 1 trial: plasma pharmacokinetics; type: in vivo; conditions: human, 160 mg, Cycle 1 Day 28, 160 mg BID (n = 15), read-out: T1/2 mean (converted)
readoutKind: half-life (h)

[
  {
    "structure": "COc1ccc(CN2C3CC2CN(c2ccc(-c4cc(N5CC(C)(O)C5)cn5ncc(C#N)c45)cn2)C3)cn1",
    "readoutKind": "half-life",
    "assayValue": 9
  }
]

---

experiment: Phase 1 trial: plasma pharmacokinetics; type: in vivo; details: human, oral, 20 mg, Cycle 1 Day 28, 20 mg QD (n = 1), read-out: Tmax mean

[
  {
    "structure": "COc1ccc(CN2C3CC2CN(c2ccc(-c4cc(N5CC(C)(O)C5)cn5ncc(C#N)c45)cn2)C3)cn1",
    "Tmax, h": 1
  }
]
